test system: CAL-51; assay: Antiproliferative activity against human CAL51 cells assessed as growth inhibition after 3 days by SRB assay; format: functional; conditions: CAL-51, 72 h
Recorded GI50 by entry

| STRUCTURE AS SMILES | QUALIFIER SYMBOL | GI50 / µM |
| --- | --- | --- |
| COc1ccc(/C=C/C(=O)c2ccccc2)cc1 | = | 2.69 |
| Cc1ccc(COc2ccc(C(=O)/C=C/c3ccc(Cl)cc3)cc2)cc1 | > | 50 |
| O=C(/C=C/c1ccccc1)c1ccccc1 | = | 1.85 |
| COc1ccc(/C=C/C(=O)c2ccc(OCc3ccccc3)cc2)cc1 | > | 50 |
| O=C(/C=C/c1ccc(Cl)cc1)c1ccccc1 | = | 5.85 |
| O=C(/C=C/c1ccc(F)cc1)c1ccc(OCc2ccccc2)cc1 | > | 50 |
| O=C(/C=C/c1ccc(Cl)cc1)c1ccc(OCc2ccccc2)cc1 | > | 50 |

###

test system: CAL-51; assay: Antiproliferative activity against human CAL51 cells assessed as growth inhibition after 3 days by SRB assay; format: functional; details: CAL-51, 72 h
ASSAY READOUT: GI50 (µM)

| STRUCTURE AS SMILES | QUALIFIER SYMBOL | TEST VALUE |
| --- | --- | --- |
| O=C(/C=C/c1ccc([N+](=O)[O-])cc1)c1ccccc1 | = | 1.21 |
| O=C(/C=C/c1ccccc1Cl)c1ccc(OCc2ccccc2)cc1 | = | 7.1 |
| COc1ccc(C(=O)/C=C/c2ccccc2)cc1 | = | 3.33 |
| COc1cccc(/C=C/C(=O)c2ccc(OCc3ccccc3)cc2)c1 | = | 13.7 |
| O=C(/C=C/c1ccccc1)c1ccc(OCc2ccccc2)cc1 | = | 28.9 |
| O=C(/C=C/c1ccc(OCc2ccccc2)cc1)c1ccccc1 | = | 24.7 |
| COc1cc(/C=C/C(=O)c2ccccc2)cc(OC)c1OC | = | 0.78 |
| Cc1ccc(COc2ccc(C(=O)/C=C/c3ccccc3)cc2)cc1 | = | 43.2 |
| O=C(/C=C/c1cccc([N+](=O)[O-])c1)c1ccccc1 | = | 1.08 |
| O=C(/C=C/c1ccccc1[N+](=O)[O-])c1ccccc1 | = | 2.59 |
| Cc1ccc(COc2ccc(C(=O)/C=C/c3ccc(F)cc3)cc2)cc1 | > | 50 |

###

Recorded log10 GI50 by entry
tested on: HCT-116; experiment: Antiproliferative activity against human HCT116 cells assessed as growth inhibition after 3 days by SRB assay; assay type: functional; conditions: HCT-116, 72 h
ASSAY READOUT: log10 GI50 (log10 of the value in µM)

| STRUCTURE AS SMILES | MEASURED TARGET | ASSAY READOUT | TEST VALUE |
| --- | --- | --- | --- |
| COc1ccc(C(=O)/C=C/c2ccccc2)cc1 | HCT-116 | log10 GI50 | 0.55 |
| COc1ccc(/C=C/C(=O)c2ccc(OCc3ccccc3)cc2)cc1 | HCT-116 | log10 GI50 | 1.57 |
| O=C(/C=C/c1ccc(Cl)cc1)c1ccccc1 | HCT-116 | log10 GI50 | 1.22 |
| O=C(/C=C/c1ccccc1[N+](=O)[O-])c1ccccc1 | HCT-116 | log10 GI50 | 0.89 |
| O=C(/C=C/c1cccc([N+](=O)[O-])c1)c1ccccc1 | HCT-116 | log10 GI50 | 0.65 |
| COc1ccc(C2=N[C@H](c3ccc(Cl)cc3)[C@H](c3ccc(Cl)cc3)N2C(=O)N2CCNC(=O)C2)c(OC(C)C)c1 | HCT-116 | log10 GI50 | 0.18 |
| COc1cc(/C=C/C(=O)c2ccccc2)cc(OC)c1OC | HCT-116 | log10 GI50 | -0.33 |
| O=C(/C=C/c1ccc([N+](=O)[O-])cc1)c1ccccc1 | HCT-116 | log10 GI50 | 0.50 |
| O=C(/C=C/c1ccccc1)c1ccccc1 | HCT-116 | log10 GI50 | 0.60 |
| O=C(/C=C/c1ccccc1Cl)c1ccc(OCc2ccccc2)cc1 | HCT-116 | log10 GI50 | 1.17 |
| COc1cccc(/C=C/C(=O)c2ccc(OCc3ccccc3)cc2)c1 | HCT-116 | log10 GI50 | 1.55 |
| COc1ccc(/C=C/C(=O)c2ccccc2)cc1 | HCT-116 | log10 GI50 | 0.59 |
